- EXPERIMENTAL SYSTEM: T1, pKal (Homo sapiens, UniProt P03952)
- T1 construct: two disulfide linked polypeptides; a heavy chain of approximately 52 kDa and a catalytic domain of approximately 34 kDa; host or cells: human plasma
- T1 sequence (P03952 391-638 limits assumed): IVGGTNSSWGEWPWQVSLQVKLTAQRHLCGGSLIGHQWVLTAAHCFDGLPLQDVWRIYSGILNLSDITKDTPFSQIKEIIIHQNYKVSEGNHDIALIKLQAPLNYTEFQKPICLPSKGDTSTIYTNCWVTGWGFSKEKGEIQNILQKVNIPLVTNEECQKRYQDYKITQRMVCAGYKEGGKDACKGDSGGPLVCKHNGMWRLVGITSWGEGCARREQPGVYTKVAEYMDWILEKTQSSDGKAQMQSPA
- T1 sequence (P03952 20-390 partner limits assumed): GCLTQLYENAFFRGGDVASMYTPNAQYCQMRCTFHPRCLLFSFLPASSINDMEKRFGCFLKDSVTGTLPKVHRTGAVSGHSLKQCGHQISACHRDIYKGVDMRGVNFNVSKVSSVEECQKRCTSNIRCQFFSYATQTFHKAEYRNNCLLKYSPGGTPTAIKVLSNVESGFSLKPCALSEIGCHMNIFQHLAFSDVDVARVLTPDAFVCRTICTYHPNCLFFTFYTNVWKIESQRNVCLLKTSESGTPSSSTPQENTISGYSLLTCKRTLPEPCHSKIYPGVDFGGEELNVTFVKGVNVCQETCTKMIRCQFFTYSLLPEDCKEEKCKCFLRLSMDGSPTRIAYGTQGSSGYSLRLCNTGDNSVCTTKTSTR
- PROCEDURE DETAILS: Fab fragments (small scale) tested for inhibition against human pKal in an in vitro protease cleavage assay
- Format: biochemical
- COND: Table 9
OUTCOME MEASURE: Inhibit as a Fab?

MOLECULE | MEASURED RESULT
X69-A12: single point mutation of M142-H08 (P1′); HV-CDR3 GGLLLWFRKLKSNYFDY (antibody, V domains shown) VL: QDIQMTQSPSSLSAFVGDRVTITCRASQPIDNYLNWYHQKPGKAPKLLIYAASRLQSGVPSRLSGSGFGTDFTLTISSLQPEDFGNYYCQQSYTVPYTFGGGTKVEIR VH: EVQLLESGGGLVQPGGSLRLSCAASGFTFSAYSMIWVRQAPGKGLEWVSYIRPSGGRTTYADSVKGRFTISRDNSKNTLYLQMNSLRAEDTAVYYCARGGLLLWFRKLKSNYFDYWGQGTLVTVSSASTKGPSVFPLAPSSKS | No
X67-H04: single point mutation of M142-H08 (P2); HV-CDR3 GGLLLWERELKSNYFDY (antibody, V domains shown) VL: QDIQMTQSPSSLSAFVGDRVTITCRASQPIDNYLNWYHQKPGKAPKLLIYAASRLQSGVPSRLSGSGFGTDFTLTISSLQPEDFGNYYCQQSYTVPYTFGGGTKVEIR VH: EVQLLESGGGLVQPGGSLRLSCAASGFTFSAYSMIWVRQAPGKGLEWVSYIRPSGGRTTYADSVKGRFTISRDNSKNTLYLQMNSLRAEDTAVYYCARGGLLLWERELKSNYFDYWGQGTLVTVSSASTKGPSVFPLAPSSKS | Yes

The values you see were collected from patent US20100183625A1.
